- test protocol: acute toxicity test (mouse, oral)
- condition notes: in vivo
readout label: LD50

Query block: GET /values?readout=LD50&item= CC(=O)OCC1=C(C(=O)O)N2C(=O)[C@@H](NC(=O)[C@H](NC(=O)c3coc4cc(O)c(O)cc4c3=O)c3ccccc3)[C@H]2SC1 [Example 2]
Result block: > 5000 mg/kg
